Test system: LOX IMVI melanoma
Assay: NCI-60 one-dose screen, 48 h (100 = growth as untreated, 0 = no growth, -100 = all killed)
Details: 10 µM unless noted
Compounds without any hit were thinned out: in the full panel of roughly 83,000, 20% have a hit.
Below is a list of entries, each paired with its recorded growth value.
The reply should be a number in %, with the unit left off.

The cases that follow already have their growth on record.
INSERT INTO results (compound, measurement_kind, quantity_unit, numeric_value) VALUES
  ('Cc1csc(-c2nnc(Nc3ccc(Oc4ncccc4-c4ccnc(N)n4)cc3)c3ccccc23)c1', 'growth', '%', 25.7),
  ('COc1ccc(C(=O)N2c3ccccc3Sc3ccccc32)c(F)c1', 'growth', '%', 40.3);

Quick one: growth for COc1ccc(C2CC(=O)c3c(O)c(OC)c(OC)c(OC)c3O2)c(O)c1 (centres undefined) ?
44.2

Quick one: growth for COc1cc2c(cc1O)c(=O)n(CCN(C)C)c1c3cc4c(cc3ncc21)OCO4 ?
-56.3

Quick one: growth for CCCCCCCC(=O)SCC/C=C/[C@@H]1CC(=O)NCc2cccc(n2)C2=N[C@@](C)(CS2)C(=O)N[C@@H](C(C)C)C(=O)O1 ?
-94.3

Quick one: growth for O=C(Cc1ccc(-c2ccc(OCCN3CCOCC3)cc2)cn1)NCc1ccccc1 ?
17.5

Quick one: growth for CC(=O)C1=C(C)NC(SCc2nnc(-c3ccc(C)cc3)o2)=NC1c1ccc(F)cc1 (centres undefined) ?
93.2

* * *

Tested on: NCI-H522 lung
Experiment: NCI-60 one-dose screen, 48 h (100 = growth as untreated, 0 = no growth, -100 = all killed)
Conditions: 10 µM unless noted
Compounds without any hit were thinned out: in the full panel of roughly 83,000, 20% have a hit. Active and inactive are the calls of the source. Rule for the calls: active = growth percent below 10; inactive = the rest.
MEASUREMENT KIND: growth

The cases that follow already have their growth on record.
INSERT INTO results (compound, measurement_kind, result) VALUES
  ('Cc1nc(NC(=O)N2CCC[C@H]2C(N)=O)sc1-c1ccnc(C(C)(C)C(F)(F)F)c1', 'growth', '33.6% (inactive)'),
  ('COc1cc(F)c(F)c(Nc2ccc(I)cc2F)c1NS(=O)(=O)C1(C[C@H](O)CO)CC1', 'growth', '31.4% (inactive)'),
  ('CC(=O)c1cnc2ccc(-c3cc(Cl)c(O)c(Cl)c3)nc2c1NC1CCC(CN(C)C)CC1 (stereo not given)', 'growth', '-75.5% [2.5 µM] (active)'),
  ('O=C(c1ccccc1)C(c1ccccc1)N1CCOCC1 (stereo not given)', 'growth', '90.4% (inactive)');

// below: growth requested for another compound
Quick one: growth for COCc1c(-c2ccc(NC(=O)Nc3cc(C(F)(F)F)ccc3F)c(F)c2)c2c(N)ncnn2c1CN1CCOCC1 ?
-55.3% (active)

* * *

Below is a list of entries, each paired with its recorded growth value.
System: NCI-H322M lung
Assay: NCI-60 one-dose screen, 48 h (100 = growth as untreated, 0 = no growth, -100 = all killed)
Conditions: 10 µM unless noted
Compounds without any hit were thinned out: in the full panel of roughly 83,000, 20% have a hit.
The reply should be a number in %, with the unit left off.

INSERT INTO assay_data (molecule, measured_on, numeric_value) VALUES
  ('CN(C)CCOC(=O)Nc1nc2ccc(Sc3ccccc3)cc2[nH]1', 'NCI-H322M lung', 36.9);

Missing value: growth, NCI-H322M lung, entry C=CC(=O)Nc1cc2c(Nc3ccc(F)c(Cl)c3)ncnc2cc1OCCCN1CCOCC1 . Fill in?
-15.2

Missing value: growth, NCI-H322M lung, entry CC[C@@H]1C(=O)N(C)c2cnc(Nc3ccc(C(=O)NC4CCC(N5CCN(CC6CC6)CC5)CC4)cc3OC)nc2N1C(C)C (stereo partly drawn) . Fill in?
23.3

Missing value: growth, NCI-H322M lung, entry CC/C(=C(\c1ccc(OCCN2CCCCCCC2)cc1)c1ccc(OC(=O)C2CCCCC2)cc1)c1ccc(Cl)cc1 . Fill in?
80.9

Missing value: growth, NCI-H322M lung, entry c1cc(OCCN2CCCCC2)cc(-c2n[nH]c3ccc(-c4ncn[nH]4)cc23)c1 . Fill in?
37.6

Missing value: growth, NCI-H322M lung, entry CCCCCCC1(/C=N/NC(N)=O)NC(=O)NC1=O (stereo not drawn) . Fill in?
102

Missing value: growth, NCI-H322M lung, entry Oc1ccc(/C=N/Nc2nnc(N/N=C/c3ccc(O)cc3O)c3ccccc23)c(O)c1 . Fill in?
-0.934

Missing value: growth, NCI-H322M lung, entry Cc1nn(-c2nc3ccccc3[nH]2)c2c1C(c1ccc(OCc3ccc(F)cc3)cc1)CC(=O)N2 (stereo not drawn) . Fill in?
70.4

Missing value: growth, NCI-H322M lung, entry O=C(NOCCO)c1ccc2cncn2c1Nc1ccc(I)cc1F . Fill in?
24.1

Missing value: growth, NCI-H322M lung, entry COC(=O)c1[nH]cnc1/N=N/N(C)CCO . Fill in?
108

Missing value: growth, NCI-H322M lung, entry CC1=CC2c3oc(-c4ccccc4)c(C(=O)c4ccccc4)c3CNC2C=C1 (stereo not drawn) . Fill in?
94.6

Missing value: growth, NCI-H322M lung, entry NC1=Nc2cc(OCCCN3Cc4ccccc4C3)c(OCC3CC3)cc2C12CCCC2 . Fill in?
91.6

* * *

Below is a list of entries, each paired with its recorded growth value.
Tested on: ACHN renal
Test: NCI-60 one-dose screen, 48 h (100 = growth as untreated, 0 = no growth, -100 = all killed)
Settings: 10 µM unless noted
This is part of a sample that, as a whole, favours compounds with a hit. Of some 83,000 tested, about 20% had one in any assay.
The reply should be a number in %, with the unit left off.

The cases that follow already have their growth on record.
INSERT INTO measurements (compound, numeric_value) VALUES
  ('N#Cc1c(-c2ccc(Cl)cc2)csc1NC(=O)Nc1cccc(C(F)(F)F)c1', 1.09),
  ('Cc1[nH]n(C(N)=S)c(=O)c1N=Nc1ccc(S(=O)(=O)Nc2ccncn2)cc1', 106),
  ('C=CC(=O)N1CCC(Oc2cc3c(Nc4ccc(Cl)c(Cl)c4F)ncnc3cc2OC)CC1', -3.88),
  ('CN(C[C@@H]1COCCO1)S(=O)(=O)Nc1ccc2ccc3ncc(-c4cnn(C)c4)cc3c(=O)c2c1', 22.2),
  ('CO[C@H]1C[C@@H]2CC[C@@H](C)[C@@](O)(O2)C(=O)C(=O)N2CCCC[C@H]2C(=O)O[C@H]([C@H](C)C[C@@H]2CC[C@@H](O)[C@H](OC)C2)CC(=O)[C@H](C)/C=C(\C)[C@@H](O)[C@@H](OC)C(=O)[C@H](C)C[C@H](C)\C=C/C=C/C=C/1C', 39.5);

// below: growth requested for another compound
Quick one: growth for Cc1ccc(F)c(NC(=O)Nc2ccc(-c3cccc4[nH]nc(N)c34)cc2)c1 ?
15.4

* * *

Below is a list of entries, each paired with its recorded growth value.
System: HCC-2998 colon
Experiment: NCI-60 one-dose screen, 48 h (100 = growth as untreated, 0 = no growth, -100 = all killed)
Details: 10 µM
About 83,000 compounds went through this panel and 20% of them were active in at least one assay; those are over-represented in the sample as a whole.
The reply should be a number in %, with the unit left off.

The cases that follow already have their growth on record.
INSERT INTO measurements (smiles, numeric_value) VALUES
  ('C[C@@H](NC(=O)c1ncnc(N)c1Cl)c1ncc(C(=O)Nc2cc(C(F)(F)F)c(Cl)cn2)s1', 69.4),
  ('COc1cc2ncnc3c2cc1OCCCCCN(C)Cc1ccc(Br)cc1N3', 68),
  ('CN1CCN(c2nc(C3=C(c4c[nH]c5ccccc45)C(=O)NC3=O)c3ccccc3n2)CC1', 19.2),
  ('Nc1nc(Nc2ccccc2)c(C=Nc2ccccc2)c(=O)[nH]1', 99.3);

Quick one: growth for COc1ncc(-c2ccc3nccc(-c4ccnnc4)c3c2)cc1NS(=O)(=O)c1ccc(F)cc1F ?
-78.4

* * *

System: OVCAR-5 ovarian
Assay: NCI-60 one-dose screen, 48 h (100 = growth as untreated, 0 = no growth, -100 = all killed)
Conditions: 10 µM unless noted
The panel holds about 83,000 compounds, 20% with a hit somewhere; the sample as a whole holds those more often.
Assign fulfilled whenever growth does not fall below 70%; assign not fulfilled whenever it does.

Field: example entries. Status: answers known.
INSERT INTO measurements (compound, qualitative_label) VALUES
  ('O=C(Nc1cnn2ccc(N3CCC[C@@H]3c3cc(F)ccc3F)nc12)N1CC[C@H](O)C1', 'fulfilled'),
  ('CNC(=O)c1cc(Oc2cccc3nc(Nc4ccc(Cl)c(F)c4)ccc23)ccn1', 'fulfilled');

Please check the record O=C1CCC(=O)CC1 and state if its growth is at or above 70%.
fulfilled

Please check the record FC(F)c1nc2ccccc2n1-c1nc(N2CCOCC2)nc(N2CCOCC2)n1 and state if its growth is at or above 70%.
not fulfilled

Please check the record Cc1ccc(-[n+]2c3cc(N)c(C)cc3nc3cc(C)c(Nc4ccccc4)cc32)cc1 and state if its growth is at or above 70%.
not fulfilled

Please check the record Cc1cc(O)cc(-c2c(-c3ccnc(-c4cccnc4)c3)cnn2C)c1 and state if its growth is at or above 70%.
not fulfilled

Please check the record Cc1nn(-c2nc3ccccc3[nH]2)c2c1C(c1ccc(O)cc1)CC(=O)N2 (configuration not stated) and state if its growth is at or above 70%.
fulfilled

Please check the record CC(=O)C1=C(C)NC(SCc2nnc(-c3ccc(C)cc3)o2)=NC1c1ccc(F)cc1 (configuration not stated) and state if its growth is at or above 70%.
fulfilled

Please check the record CC(C)(C)c1nc(-c2cccc(NS(=O)(=O)c3c(F)cccc3F)c2F)c(-c2ccnc(N)n2)s1 and state if its growth is at or above 70%.
not fulfilled
